The reported measurements were obtained from paper PMC9804387.

target: recombinant Pf PMX (Plasmodium falciparum); construct: made in house; assay: PMX biochemical FRET assay (Rh2N fluorogenic substrate cleavage); conditions: recombinant PMX, fluorogenic substrate (Rh2N) cleavage, 37 °C, 4 h; mean and SD of 4 replicates (Tables 1, 2)
Sequence (Q8IAS0 222-573): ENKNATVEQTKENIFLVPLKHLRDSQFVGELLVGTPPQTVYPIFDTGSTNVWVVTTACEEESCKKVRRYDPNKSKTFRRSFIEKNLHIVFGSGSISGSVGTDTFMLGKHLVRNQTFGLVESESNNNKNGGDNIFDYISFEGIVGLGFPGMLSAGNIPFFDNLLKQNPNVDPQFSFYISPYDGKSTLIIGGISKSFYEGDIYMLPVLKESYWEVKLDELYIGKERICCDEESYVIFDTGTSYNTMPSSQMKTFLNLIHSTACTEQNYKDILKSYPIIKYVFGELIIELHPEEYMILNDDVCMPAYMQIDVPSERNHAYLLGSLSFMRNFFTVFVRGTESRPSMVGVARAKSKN
pIC50: −log10 of the molar value. Where a name gives a salt, the structure may show the parent alone.
Lab note: compare pIC50 against 8. Equal or greater, write label 1. Smaller, write label 0.

**Query** Is reported pIC50 greater than or equal to 8 here: CCC(C)[C@H](NC(=O)OCc1ccccc1)C(=O)N[C@@H](Cc1ccccc1)[C@H](O)CN[C@H](C)c1ccccc1 (stereo partly shown)
**Result** label 0

**Query** Record: C[C@@H](NC[C@@H](O)[C@H](Cc1ccccc1)NC(=O)[C@@H](CO)NC(=O)OCc1ccccc1)c1ccccc1 [Compd 40, Cbz‐D‐Ser‐Phe‐HEA‐Bn(CH3)⋅TFA]
**Result** label 0

**Query** Further, for CC(C)C[C@H](NC(=O)OCc1ccccc1)C(=O)N[C@@H](Cc1ccccc1)[C@H](O)CN[C@H](C)c1ccccc1 ?
**Result** label 0

**Query** How about C[C@@H](NC[C@@H](O)[C@H](Cc1ccccc1)NC(=O)c1ccc(C(=O)N2CCN(C)CC2)cc1)c1ccccc1 [Compd 2, reference compound] ?
**Result** label 1

**Query** Here is the next compound: CC(O)[C@H](NC(=O)OCc1ccccc1)C(=O)N[C@@H](Cc1ccccc1)[C@H](O)CN[C@H](C)c1ccccc1 (stereo partly shown) [Compd 42, Cbz‐Thr‐Phe‐HEA‐Bn(CH3)⋅TFA]
**Result** label 0

====

biological target: recombinant Pf PMX (Plasmodium falciparum); construct: made in house; assay: PMX biochemical FRET assay (Rh2N fluorogenic substrate cleavage); conditions: recombinant PMX, fluorogenic substrate (Rh2N) cleavage, 37 °C, 4 h; mean and SD of 4 replicates (Tables 1, 2)
Where a name gives a salt, the structure may show the parent alone.
Please provide measured pIC50 for the entries that follow.
Friendly reminder that pIC50 comes from taking -log10 of the concentration in mol/L.

**Query** May I ask what pIC50 has been recorded for CC(=O)NC(CO)C(=O)NC(CO)C(=O)NC(Cc1ccccc1)C(O)CNC(C)c1ccccc1 (stereo not drawn) [Compd 28, Ac‐Ser‐Ser‐Phe‐HEA‐Bn(CH3)⋅TFA] ?
**Result** 6.24

**Query** Continue with C[C@@H](NC[C@@H](O)[C@H](Cc1ccccc1)NC(=O)[C@H](Cc1ccccc1)NC(=O)OCc1ccccc1)c1ccccc1
**Result** 7.15

**Query** Try the compound CC(=O)N[C@@H](CO)C(=O)N[C@@H](Cc1ccccc1)[C@H](O)CN[C@H](C)c1ccccc1 [Compd 39, Ac‐Ser‐Phe‐HEA‐Bn(CH3)⋅TFA]
**Result** 5.48

**Query** Now this one: CC(C)C[C@H](NC(=O)[C@H](CO)NC(=O)OCc1ccccc1)[C@H](O)CN[C@H](C)c1ccccc1 [Compd 41, Cbz‐Ser‐Leu‐HEA‐Bn(CH3)⋅TFA]
**Result** 5.74

**Query** Now the same for C[C@@H](NC[C@@H](O)[C@H](Cc1ccccc1)NC(=O)[C@H](CO)NC(=O)OCc1ccccc1)c1ccccc1 [Compd 38, Cbz‐Ser‐Phe‐HEA‐Bn(CH3)⋅TFA]
**Result** 7.22

**Query** Note, next up: CC(=O)NC(CC(N)=O)C(=O)NC(CO)C(=O)NC(Cc1ccccc1)C(O)CNC(C)c1ccccc1 (stereo not drawn) [Compd 27, Ac‐Asn‐Ser‐Phe‐HEA‐Bn(CH3)⋅TFA]
**Result** 6.24

====

system: P. falciparum (Pf) 3D7 parasites; test: P. falciparum LDH viability assay; format: cell-based; settings: Plasmodium falciparum, 3D7, 72 h, LDH activity, 72 h at 37 °C; mean and SD of 3 independent experiments
Structures can show the parent of a compound that is named as a salt.
readout kind: EC50 (nM)
Write the value in nM as a bare number.

**Query** // returns reported EC50 for input C[C@@H](NC[C@@H](O)[C@H](Cc1ccccc1)NC(=O)c1ccc(C(=O)N2CCN(C)CC2)cc1)c1ccccc1 [Compd 2, reference compound]
**Result** 1

**Query** Same for CC(=O)N[C@@H](CO)C(=O)N[C@@H](Cc1ccccc1)[C@H](O)CN[C@H](C)c1ccccc1 [Compd 39, Ac‐Ser‐Phe‐HEA‐Bn(CH3)⋅TFA]
**Result** 6200

**Query** Also, CC(C)CC(NC(=O)C(CO)NC(=O)OCc1ccccc1)C(=O)NC(Cc1ccccc1)C(O)CNC(C)c1ccccc1 (centres unmarked) [Compd 24, Cbz‐Ser‐Leu‐Phe‐HEA‐Bn(CH3)⋅TFA] please.
**Result** 1600

**Query** What about this compound? C[C@@H](NC[C@@H](O)[C@H](Cc1ccccc1)NC(=O)[C@H](Cc1ccccc1)NC(=O)OCc1ccccc1)c1ccccc1
**Result** 650

====

Consider compounds characterized by their IC50 with BACE‐1 (Homo sapiens, UniProt P56817).
Sequence (P56817 46-460 limits assumed): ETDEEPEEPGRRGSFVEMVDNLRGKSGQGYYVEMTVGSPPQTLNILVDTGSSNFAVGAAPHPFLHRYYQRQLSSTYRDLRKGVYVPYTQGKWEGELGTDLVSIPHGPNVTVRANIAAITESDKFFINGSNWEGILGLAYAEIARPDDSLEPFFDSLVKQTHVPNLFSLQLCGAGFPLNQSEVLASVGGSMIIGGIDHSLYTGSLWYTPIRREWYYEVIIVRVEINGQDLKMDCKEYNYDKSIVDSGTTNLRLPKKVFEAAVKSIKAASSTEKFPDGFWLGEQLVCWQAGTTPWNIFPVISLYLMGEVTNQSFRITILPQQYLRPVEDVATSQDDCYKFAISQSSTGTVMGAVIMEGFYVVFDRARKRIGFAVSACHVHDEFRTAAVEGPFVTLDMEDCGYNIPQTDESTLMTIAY
Structures can show the parent of a compound that is named as a salt.

**Query** Name the reported IC50 value associated with the compound C[C@@H](NC[C@@H](O)[C@H](Cc1ccccc1)NC(=O)c1ccc(C(=O)N2CCN(C)CC2)cc1)c1ccccc1 [Compd 2, reference compound]
**Result** > 11 µM

**Query** And what about the compound CCC(C)C(NC(C)=O)C(=O)NC(CO)C(=O)NC(Cc1ccccc1)C(O)CNC(C)c1ccccc1 (centres unmarked) [Compd 26, Ac‐Ile‐Ser‐Phe‐HEA‐Bn(CH3)⋅TFA] ?
**Result** 2.9 µM

**Query** For C[C@@H](NC[C@@H](O)[C@H](Cc1ccccc1)NC(=O)[C@H](CO)NC(=O)OCc1ccccc1)c1ccccc1 [Compd 38, Cbz‐Ser‐Phe‐HEA‐Bn(CH3)⋅TFA] then?
**Result** > 11 µM

**Query** Proceed to CCC(C)[C@H](NC(=O)OCc1ccccc1)C(=O)N[C@@H](Cc1ccccc1)[C@H](O)CN[C@H](C)c1ccccc1 (some centres unmarked) [Compd 37, Cbz‐Ile‐Phe‐HEA‐Bn(CH3)]
**Result** > 11 µM

**Query** Next compound: CC(C)[C@H](NC(=O)OCc1ccccc1)C(=O)N[C@@H](Cc1ccccc1)[C@H](O)CN[C@H](C)c1ccccc1 [Compd 34, Cbz‐Val‐Phe‐HEA‐Bn(CH3)]
**Result** > 11 µM

====

What CC50 at 48 h was measured for each of the following?
test: in vitro; assay type: cell-based; details: human
Where a name gives a salt, the structure may show the parent alone.

**Query** I have this molecule here, CC(C)CC(NC(=O)C(Cc1ccccc1)NC(=O)C(CO)NC(=O)OCc1ccccc1)C(O)CNC(C)c1ccccc1 (stereo not drawn) [Compd 23, Cbz‐Ser‐Phe‐Leu‐HEA‐Bn(CH3)⋅TFA] , and I need its recorded CC50 at 48 h.
**Result** 30 µM

**Query** Another molecule to check: CC(=O)NC(CO)C(=O)NC(CO)C(=O)NC(Cc1ccccc1)C(O)CNC(C)c1ccccc1 (stereo not drawn) [Compd 28, Ac‐Ser‐Ser‐Phe‐HEA‐Bn(CH3)⋅TFA]
**Result** > 40 µM

**Query** # iterate: CC(C)[C@H](NC(=O)OCc1ccccc1)C(=O)N[C@@H](Cc1ccccc1)[C@H](O)CN[C@H](C)c1ccccc1 [Compd 34, Cbz‐Val‐Phe‐HEA‐Bn(CH3)]
**Result** 13 µM

**Query** Further, for C[C@@H](NC[C@@H](O)[C@H](Cc1ccccc1)NC(=O)[C@@H](CO)NC(=O)OCc1ccccc1)c1ccccc1 [Compd 40, Cbz‐D‐Ser‐Phe‐HEA‐Bn(CH3)⋅TFA] ?
**Result** > 40 µM

**Query** Same thing, different molecule: CCC(C)C(NC(C)=O)C(=O)NC(CO)C(=O)NC(Cc1ccccc1)C(O)CNC(C)c1ccccc1 (stereo not drawn) [Compd 26, Ac‐Ile‐Ser‐Phe‐HEA‐Bn(CH3)⋅TFA]
**Result** > 40 µM

**Query** What would you report for C[C@@H](NC[C@@H](O)[C@H](Cc1ccccc1)NC(=O)[C@H](Cc1ccccc1)NC(=O)OCc1ccccc1)c1ccccc1 [Compd 36, Cbz‐Phe‐Phe‐HEA‐Bn(CH3)] ?
**Result** > 40 µM

====

molecular target: recombinant Pf PMIX (Plasmodium falciparum, UniProt Q8ILG2); assay: PMIX FRET protease assay; conditions: mean and SD of 4 replicate FRET experiments, 37 °C
Sequence (Q8ILG2 whole entry): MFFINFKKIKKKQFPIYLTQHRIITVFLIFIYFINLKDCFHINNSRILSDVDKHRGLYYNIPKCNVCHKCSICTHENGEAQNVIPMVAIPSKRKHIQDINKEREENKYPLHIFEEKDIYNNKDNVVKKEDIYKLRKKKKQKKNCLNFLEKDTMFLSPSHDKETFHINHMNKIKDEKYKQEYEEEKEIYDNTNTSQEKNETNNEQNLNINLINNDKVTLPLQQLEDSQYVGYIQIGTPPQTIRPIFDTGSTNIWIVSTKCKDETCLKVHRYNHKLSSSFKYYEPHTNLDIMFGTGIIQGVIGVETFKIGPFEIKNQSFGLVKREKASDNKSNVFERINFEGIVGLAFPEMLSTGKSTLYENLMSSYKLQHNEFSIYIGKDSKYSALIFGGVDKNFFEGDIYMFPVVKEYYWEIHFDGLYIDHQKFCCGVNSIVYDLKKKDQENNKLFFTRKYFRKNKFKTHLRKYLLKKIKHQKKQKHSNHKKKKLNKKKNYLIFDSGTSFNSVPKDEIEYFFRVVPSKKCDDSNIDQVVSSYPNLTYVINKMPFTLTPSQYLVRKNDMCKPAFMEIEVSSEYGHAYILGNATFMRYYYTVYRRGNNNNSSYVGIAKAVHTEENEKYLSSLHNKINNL
Where a name gives a salt, the structure may show the parent alone.
Kindly state pIC50 for each of the entries shown.
// pIC50 here means minus log10 of the molar concentration (mol/L)

**Query** Which value of pIC50 has been reported for CC(C)[C@H](NC(=O)OCc1ccccc1)C(=O)N[C@@H](Cc1ccccc1)[C@H](O)CN[C@H](C)c1ccccc1 in the records?
**Result** 5.16

**Query** Repeat for the following compound: C[C@@H](NC[C@@H](O)[C@H](Cc1ccccc1)NC(=O)c1ccc(C(=O)N2CCN(C)CC2)cc1)c1ccccc1 [Compd 2, reference compound]
**Result** 4.82

**Query** // same read-out, input: CCC(C)[C@H](NC(=O)OCc1ccccc1)C(=O)N[C@@H](Cc1ccccc1)[C@H](O)CN[C@H](C)c1ccccc1 (some centres unmarked)
**Result** 4.83

**Query** Then what about the compound CCC(C)C(NC(C)=O)C(=O)NC(CO)C(=O)NC(Cc1ccccc1)C(O)CNC(C)c1ccccc1 (centres unmarked) [Compd 26, Ac‐Ile‐Ser‐Phe‐HEA‐Bn(CH3)⋅TFA] ?
**Result** 5.57

**Query** Same thing, different compound: C[C@@H](NC[C@@H](O)[C@H](Cc1ccccc1)NC(=O)[C@H](CO)NC(=O)OCc1ccccc1)c1ccccc1 [Compd 38, Cbz‐Ser‐Phe‐HEA‐Bn(CH3)⋅TFA]
**Result** 4.39
